assayOverview: MTS assay, cytotoxicity (72 h)
Assay type: cell-based
cond: human, HEK293a SHH+ cells; 25 μM, 72 h
Just a reminder that ties go to rule not met: only viability at 72 h, 25 µM strictly below 80% counts as rule met.

Decide: viability at 72 h, 25 µM of CC[C@H](C)CNCC(=O)N1CCc2sccc2C1c1cccc(C)n1 (stereo partly drawn) strictly below 80%? rule met

Decide: viability at 72 h, 25 µM of CC(=O)N1CCc2ccccc2C1c1ccccc1 (stereo not drawn) strictly below 80%? rule not met

Decide: viability at 72 h, 25 µM of c1ccc(C2NCCc3sccc32)cc1 (stereo not drawn) strictly below 80%? rule not met

Decide: viability at 72 h, 25 µM of Cc1cccc([C@@H]2c3ccsc3CCN2C(=O)CNCC(C)C)n1 strictly below 80%? rule not met

Decide: viability at 72 h, 25 µM of CCC(C)CNCC(=O)N1CCc2sccc2C1COc1cccc(C)c1 (stereo not drawn) strictly below 80%? rule met

Consider the record given below.
Decide: viability at 72 h, 25 µM of N[C@@H](Cc1ccccc1)C(=O)N1CCc2sccc2C1c1ccccc1 (stereo partly drawn) strictly below 80%? rule met

---

viability at 72 h, 25 µM for assorted molecules
assayOverview: MTS assay, cytotoxicity (72 h)
Type: cell-based
cond: human, HEK293a SHH+ cells; 25 μM, 72 h
Supply the numeric figure in %, leaving out any unit text.

I'd like to know its viability at 72 h, 25 µM. The molecule in question is CC(=O)N1CCc2sccc2C1C1CCCCC1 (stereo not shown) 59

---
I'd like to know its viability at 72 h, 25 µM. The molecule in question is CCC(C)CNCC(=O)N1CCc2sccc2C1c1cccc(C)c1 (stereo not shown) 55

I'd like to know its viability at 72 h, 25 µM. The molecule in question is CCC(C)CNCC(=O)N1CCc2sccc2C1c1ccccc1OC (stereo not shown) 42

I'd like to know its viability at 72 h, 25 µM. The molecule in question is O=C([C@@H]1CCCN1)N1CCc2sccc2C1c1ccccc1 (mixture of isomers) 81

---

assayOverview: PAMPA parallel artificial membrane permeability assay
cond: PAMPA, pH 5
experimentalReadout: recovery at 16 h, 10 µM

I'd like to know its recovery at 16 h, 10 µM. The compound in question is CCC(C)CNCC(=O)N1CCc2sccc2C1c1cccc(C)c1 (stereo not drawn) [Compound 17] < 31%

I'd like to know its recovery at 16 h, 10 µM. The compound in question is CCC(C)CNCC(=O)N1CCc2sccc2C1c1cccc(C)n1 (stereo not drawn) [Compound 22] < 65%

I'd like to know its recovery at 16 h, 10 µM. The compound in question is C=CCNCC(=O)N1CCc2sccc2C1COc1ccc(Cl)cc1 (stereo not drawn) [Compound 2] < 31%

---

Target or system purified HHAT (Homo sapiens, UniProt Q5VTY9): recorded IC50 listed per item.

Short answer please: IC50, purified HHAT (Homo sapiens, UniProt Q5VTY9), entry COCCNC(=O)N1CCc2ccccc2C1c1ccccc1 (centres unmarked) > 25 µM

Short answer please: IC50, purified HHAT (Homo sapiens, UniProt Q5VTY9), entry c1ccc(C2NCCc3sccc32)cc1 (centres unmarked) > 25 µM

Short answer please: IC50, purified HHAT (Homo sapiens, UniProt Q5VTY9), entry CC(C)CNCC(=O)N1CCc2ccccc2C1c1ccccc1 (stereo in doubt) [Compound 42] > 100 µM

Short answer please: IC50, purified HHAT (Homo sapiens, UniProt Q5VTY9), entry CC(C)CCNC(=O)N1CCc2ccccc2C1c1ccccc1 (centres unmarked) > 25 µM

Now turn to the next compound.
Short answer please: IC50, purified HHAT (Homo sapiens, UniProt Q5VTY9), entry O=C([C@@H]1CCCN1)N1CCc2sccc2C1c1ccccc1 (mixture of isomers) > 25 µM
